- TEST TARGET: T1, human TIGIT (Sinobiological Co., Ltd., Cat. 10917-H08-H) (human, UniProt Q495A1 22-141)
- T1 construct: also called huTIGIT; TIGIT-His
- T1 sequence (looked up): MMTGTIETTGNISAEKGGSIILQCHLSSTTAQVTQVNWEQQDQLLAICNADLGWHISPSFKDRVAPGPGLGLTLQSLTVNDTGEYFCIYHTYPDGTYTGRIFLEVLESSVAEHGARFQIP
- TEST METHOD NOTES: SPR (Biacore T200), antibody captured via Protein A, huTIGIT in mobile phase, 1:1 Langmuir fit
The label true (1) is reserved for koff strictly under 0.0002 s⁻¹; false (0) covers values equal to or above it.

[
  {
    "BINDER": "h1709-10 (antibody, human IgG4 S228P, kappa, V domains shown, also called humanized TIGIT antibody h1709-10) VH: EVQLVQSGAEVKKPGASVKVSCKASGYTFTDYYMHWVRQAPGQGLEWMGLVYPYNDNTGYNRKFKGRVTMTVDTSTSTVYMELNSLRSEDTAVYYCARGGPSNWNYFDYWGQGTLVTVSS VL: DIQMTQSPSSLSASVGDRVTITCKASQNVVTAVAWYQQKPGKSPKLLIYSASNRYTGVPDRFSGSGSGTDFTLTISSLQPEDFATYFCQQYTLYPLTFGGGTKVEIKR",
    "ASSIGNED CATEGORY": "false (0)"
  },
  {
    "BINDER": "h1710-01 (antibody, human IgG4 S228P, kappa, V domains shown, also called humanized TIGIT antibody h1710-01) VH: EVQLVQSGAEVKKPGASVKVSCKASGYTFTNYYMHWVRQAPGQGLEWMGRIDPTSGATKYNDNFKGRVTMTRDTSTSTVYMELSSLRSEDTAVYYCAREGGFGYYFDYWGQGTTVTVSS VL: DIQMTQSPSSLSASVGDRVTITCRTSENIFTYLAWYQQKPGKAPKLLIYNAKTFAEGVPSRFSGSGSGTDFTLTISSLQPEDFATYYCQHHYGIPLPFGQGTKLEIKR",
    "ASSIGNED CATEGORY": "false (0)"
  },
  {
    "BINDER": "22G2-H3Q (antibody, human IgG4 S228P, kappa, V domains shown) VH: QVQLQESGPGLVKPSETLSLTCTVSGGSVSSGIYYWSWIRQPPGKGLEWIGYIYYSGSTNYNPSLKSRVTISVDTSKNQFSLKLSSVTAADTAVYYCARDYYVSGNYYNVDYYFFGVDVWGQGTTVTVSS VL: EIVLTQSPATLSLSPGERATLSCRASQSVSSYLAWYQQKPGQAPRLLIYDASNRATGIPARFSGSGSGTDFTLTISSLEPEDFAVYYCQQRSNWPPLFTFGPGTKVDIKR",
    "ASSIGNED CATEGORY": "false (0)"
  },
  {
    "BINDER": "h1708-04 (antibody, human IgG4 S228P, kappa, V domains shown, also called humanized TIGIT antibody h1708-04) VH: EVQLVQSGAEVKKPGASVKVSCKASGYTFTNYWMHWVRQAPGQGLEWMGRIDPDSTGSKYNEKFKTRVTMTRDTSTSTVYMELSSLRSEDTAVYYCAREGAYGYYFDYWGQGTLVTVSS VL: DIQMTQSPSSLSASVGDRVTITCRASENIYSYLAWYQQKPGKSPKLLIYNARTLAEGVPSRFSGSGSGTDFTLTISSLQPEDFATYYCQYHSGSPLPFGGGTKVEIKR",
    "ASSIGNED CATEGORY": "true (1)"
  },
  {
    "BINDER": "h1707-02 (antibody, human IgG4 S228P, kappa, V domains shown, also called humanized TIGIT antibody h1707-02) VH: EVQLVESGGGLVQPGGSLRLSCAASGFTFSDYHMYWVRQAPGKGLEWVAYISKGGISTYYPDTVKGRFTISRDNAKNSLYLQMSRLRAEDTAVYYCARQSSYDFAMDYWGRGTLVTVSS VL: DIQMTQSPSFLSASVGDRVTITCKASQDVGTSVAWYQQKPGKAPKLLIYWASARHTGVPSRFSGSGSGTDFTLTISSLQPEDFATYYCQQYSSYPLTFGQGTKLEIKR",
    "ASSIGNED CATEGORY": "true (1)"
  }
]
